Target: panel of 255 wild-type kinases (Homo sapiens, UniProt P06241)
Sequence (P06241 whole entry): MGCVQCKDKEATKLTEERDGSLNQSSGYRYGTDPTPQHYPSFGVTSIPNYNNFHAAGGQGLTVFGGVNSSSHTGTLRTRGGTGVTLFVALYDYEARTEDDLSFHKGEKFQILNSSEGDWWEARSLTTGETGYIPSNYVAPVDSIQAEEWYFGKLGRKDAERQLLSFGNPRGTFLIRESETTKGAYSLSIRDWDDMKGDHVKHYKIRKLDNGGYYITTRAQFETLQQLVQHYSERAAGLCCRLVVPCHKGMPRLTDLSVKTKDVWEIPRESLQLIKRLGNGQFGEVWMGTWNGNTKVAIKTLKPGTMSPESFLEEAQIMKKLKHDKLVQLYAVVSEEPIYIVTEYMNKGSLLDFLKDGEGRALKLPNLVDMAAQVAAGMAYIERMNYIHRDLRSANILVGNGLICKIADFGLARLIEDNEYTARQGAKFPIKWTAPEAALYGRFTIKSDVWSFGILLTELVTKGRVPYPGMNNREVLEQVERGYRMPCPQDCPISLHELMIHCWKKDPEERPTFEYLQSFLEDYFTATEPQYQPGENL
Assay: Kinase panel profiling at 1 µmol/L (MSA or IMAP), percentage inhibition
Assay type: biochemical
Conditions: kinase FYN [isoform a]; 1 µmol/L single concentration; read-out: %-inhibition at 1 µmol/L, FYN [isoform a]
Assay Readout: inhibition at 1 µM (%)
// return numeric value only (unit: %, not printed)

Cn1cnc2c(F)c(Nc3ccc(Br)cc3F)c(C(=O)NOCCO)cc21 ... 3.76
CCN1C(=O)N(c2c(F)c(OC)cc(OC)c2F)Cc2cnc3[nH]c(CN4CCOCC4)cc3c21 ... 9
C[C@H]1Oc2cc(cnc2N)-c2c(nn(C)c2C#N)CN(C)C(=O)c2ccc(F)cc21 ... 15
COC(=O)N[C@@H](C)CNc1nccc(-c2cn(C(C)C)nc2-c2cc(Cl)cc(NS(C)(=O)=O)c2F)n1 ... 6
Cc1nc(NC(=O)N2CCC[C@H]2C(N)=O)sc1-c1ccnc(C(C)(C)C(F)(F)F)c1 ... 1.52
CO[C@]1(C(=O)N[C@@H](C)c2ccc(-n3cc(F)cn3)nc2)CC[C@H](c2nc(C)cc(Nc3cc(C)[nH]n3)n2)CC1 ... 82

Now for another entry.
Looking up "COc1ccc(CN2C3CC2CN(c2ccc(-c4cc(OCC(C)(C)O)cn5ncc(C#N)c45)cn2)C3)cn1" , I found its inhibition at 1 µM recorded as 24

These measurements were taken from paper PMC9516332.
